TEST NAME: Solubility in H2O
ASSAY CONDITIONS: salt as labelled
Exercise: state measured Solubility in H2O for each of the molecules provided.
Give the value in mg/mL but do not write mg/mL after it.

Retrieve Solubility in H2O measured for Cc1ccc(C(=O)N[C@@H]2CC[C@@]3(O)[C@H]4Cc5ccc(O)c6c5[C@@]3(CCN4CC3CC3)[C@H]2O6)cc1.O=C(O)C(=O)O [Compound 4-oxalate] and print it.
2

Determine from records and report Solubility in H2O for CN(C(=O)c1ccc(Br)cc1)[C@@H]1CC[C@@]2(O)[C@H]3Cc4ccc(O)c5c4[C@@]2(CCN3CC2CC2)[C@H]1O5.O=C(O)C(=O)O [14b. Oxalate]
20

Look up and state reported Solubility in H2O for O=C(N[C@@H]1CC[C@@]2(O)[C@H]3Cc4ccc(O)c5c4[C@@]2(CCN3CC2CC2)[C@H]1O5)c1ccc(C(F)(F)F)cc1.O=C(O)C(=O)O [Compound 5-oxalate]
1
